system under test: Hepatocyte nuclear factor 3-beta (Homo sapiens) (UniProt Q9Y261)
Sequence (Q9Y261 whole entry, looked up): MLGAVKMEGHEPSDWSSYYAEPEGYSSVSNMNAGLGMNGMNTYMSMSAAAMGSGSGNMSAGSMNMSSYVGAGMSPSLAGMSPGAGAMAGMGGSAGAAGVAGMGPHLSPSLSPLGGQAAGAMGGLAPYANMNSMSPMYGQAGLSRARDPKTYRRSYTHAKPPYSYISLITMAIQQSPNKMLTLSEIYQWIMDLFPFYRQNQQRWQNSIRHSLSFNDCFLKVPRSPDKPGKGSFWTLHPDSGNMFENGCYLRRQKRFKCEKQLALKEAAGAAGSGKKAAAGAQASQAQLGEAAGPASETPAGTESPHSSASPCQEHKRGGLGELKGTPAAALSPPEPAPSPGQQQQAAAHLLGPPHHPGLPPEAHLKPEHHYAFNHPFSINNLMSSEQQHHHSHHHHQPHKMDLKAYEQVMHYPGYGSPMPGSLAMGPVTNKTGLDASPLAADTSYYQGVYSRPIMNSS
assay summary: ATG_FoxA2_CIS: Attagene CIS-FACTORIAL HepG2 Assay for human Forkhead box A2 (FOXA2) (AID 2282942)
condition details: HepG2 cis-reporter transcription factor activity, 24 h; actives raise or lower the signal
Description: ATG_CIS is a cell-based, multiplexed-readout assay that uses HepG2, a human liver cell line, with measurements taken at 24 hours after chemical dosing in a 24-well plate.ATG_FoxA2_CIS is one of 52 assay component(s) measured or calculated from the ATG_CIS assay. […] This assay endpoint, ATG_FoxA2_CIS, was analyzed with bidirectional fitting relative to DMSO as the negative control and baseline of activity. […]
Calls of active or inactive are those of the source. Rule for the calls: active = hit-call score of the fitted dose curve at least 0.9, where 1 is the maximum; inactive = score below 0.9.
In this exercise, the only acceptable responses are active, inactive

Hi team, can someone confirm the assay call for CCCCCCCCCCCCCCN(CCO)CCO ?
inactive

How did this test come out for C1CCCCC1 ?
inactive

Identify the outcome logged in this assay for the compound shown: CCOc1ccc(NC(=O)CC(C)=O)cc1
inactive

For CCc1ncc(C)[nH]1 , what call appears in the results of this test?
inactive

Could you check what this test reported for NC1CCCCC1N (stereo not given) ?
inactive

# lookup: test call for COCCc1ccc(OCC(O)CNC(C)C)cc1 (stereo not given)
inactive

Status in this test for C=Cc1ccc(C(C)(C)C)cc1 ?
inactive

Look up the recorded call for CCCCCCCCSCCO in this test.
inactive

Record lookup: outcome of this test for O=CCc1ccccc1 ?
inactive

Answer briefly: the call reported for COc1cccc(OC)c1O in this assay.
inactive

How did this test come out for COc1ccccc1[N+](=O)[O-] ?
inactive

Call for entry CCCC(=O)c1ccccc1 :
inactive

Could you check what this test reported for C[N+](C)(C)CCCCCC[N+](C)(C)C ?
inactive

How did this test come out for CS(=O)(=O)c1ccc(Cl)cc1 ?
inactive

Check the results log: what was the call for CC(C)C(OC(=O)c1ccccc1)C(C)(C)COC(=O)c1ccccc1 (stereo not given) ?
inactive

Could you please tell me the result logged for CCCCCc1ccco1 in this assay?
inactive

Please indicate how the test categorized CC1(C)O[C@@H]2[C@@H](CO[C@@]3(COS(N)(=O)=O)OC(C)(C)O[C@@H]23)O1 .
inactive

What classification did COc1ccc(OC)c(N=Nc2c(O)ccc3ccccc23)c1 end up with in this test?
inactive

For Cc1c(C2(c3cc(Br)c(O)c(Br)c3C)OS(=O)(=O)c3ccccc32)cc(Br)c(O)c1Br , what call appears in the results of this test?
inactive

Given CC(C)c1ccccc1O , state the outcome it received in this test.
inactive

# fetch the recorded call for Cc1c(Cl)cccc1[N+](=O)[O-] here
inactive

How was OCc1cccc(Oc2ccccc2)c1 classified in this test?
inactive

In this assay, the call recorded for CC=CC=CCOC(=O)C(C)C was what?
inactive

What did the test return for O=C(CC(=O)c1ccccc1)c1ccccc1 ?
inactive

Recorded test outcome, item CC/C=C\CCOC(=O)CC
inactive

State the result this test recorded for CCCCCCC(=O)c1ccccc1 .
inactive

Each compound tested received a call. Report the one for C1CCOC1 .
inactive

What call does the record list for OCCCCC(O)CO (stereo not given) ?
inactive

Could you check what this test reported for CC1CCC(C(C)C)C(O)C1 (stereo not given) ?
inactive

Test call for this compound, please: C=CC(C)C#N (stereo not given)
inactive

Check the results log: what was the call for IC(I)I ?
inactive

Could you please tell me the result logged for OC[C@H]1O[C@@H]2O[C@H]3[C@H](O)[C@@H](O)[C@@H](O[C@H]4[C@H](O)[C@@H](O)[C@@H](O[C@H]5[C@H](O)[C@@H](O)[C@@H](O[C@H]6[C@H](O)[C@@H](O)[C@@H](O[C@H]7[C@H](O)[C@@H](O)[C@@H](O[C@H]8[C@H](O)[C@@H](O)[C@@H](O[C@H]9[C@H](O)[C@@H](O)[C@@H](O[C@H]1[C@H](O)[C@H]2O)O[C@@H]9CO)O[C@@H]8CO)O[C@@H]7CO)O[C@@H]6CO)O[C@@H]5CO)O[C@@H]4CO)O[C@@H]3CO in this assay?
inactive

Record request — test call for CS(=O)(=O)OCCCCOS(C)(=O)=O
inactive

Could you kindly confirm the outcome this assay logged for CCCC[O][Al]([O]CCCC)[O]CCCC ?
inactive

Recorded test call requested for COc1cc(CCC(C)=O)ccc1O
inactive

What classification did CN(C)CCOC(C)(c1ccccc1)c1ccccn1 (stereo not given) end up with in this test?
inactive

Returns: the outcome recorded for CCCCOCC in this assay.
inactive

Dear all, I need the recorded test outcome for Nc1ccc2c(O)cc(S(=O)(=O)O)cc2c1 , thank you.
inactive

# outcome recorded in this test, key = O=c1c(O)c(-c2ccc(O)cc2)oc2cc(O)cc(O)c12
inactive

// return assay outcome for O=C1OC(=O)c2c(Cl)c(Cl)c(Cl)c(Cl)c21
active

What is the recorded call for this compound in the test? CN1C(=O)c2ccccc2C1=O
inactive

Lab log entry: CN(C)C(=O)Nc1ccc(Oc2ccc(Cl)cc2)cc1 — outcome as called in the assay?
inactive

# fetch the recorded call for C=CCOC(=O)CCCCCC here
inactive

Could you kindly confirm the outcome this assay logged for O=C(O)CCCCCCCCCCCC(=O)O ?
inactive

Tell me the recorded outcome of this test for c1ccc(CN(Cc2ccccc2)Cc2ccccc2)cc1 .
inactive

So what was the verdict on COC(CC(C)CCCC(C)(C)O)OC (stereo not given) in this test?
inactive

What did the test return for C=C(C)[C@@H]1CC=C(C)C(=O)C1 ?
inactive

Record lookup: outcome of this test for CCC(C)=O ?
inactive

Answer briefly: the call reported for Cc1cc(C)nc(NS(=O)(=O)c2ccc(N)cc2)n1 in this assay.
inactive

Name the outcome recorded for COC(=O)c1cccnc1 in the assay.
inactive

Assay outcome for Cc1ccc(N)c(S(=O)(=O)O)c1 : what was it?
inactive

Tell me the recorded outcome of this test for CC(C)=CCCC(C)CC(=O)O (stereo not given) .
inactive

What is the recorded call for this compound in the test? CCCCC1(COC(=O)CCC(=O)O)C(=O)N(c2ccccc2)N(c2ccccc2)C1=O
inactive

Recorded test call requested for Cc1cc(CCC(=O)OCCOCCOCCOC(=O)CCc2cc(C)c(O)c(C(C)(C)C)c2)cc(C(C)(C)C)c1O
inactive

In this assay, the call recorded for CC=Cc1ccc(OCC)c(O)c1 was what?
inactive
